Assay: Acid stability in 2% TFA, LCMS
Conditions: 3 mM stock diluted 6-times to 2% TFA-NanoPure water
Would you kindly list % remaining after 1 h at 40° C. in 2% TFA for each of these compounds?
Give bare numbers, in %.

Please review the following examples before continuing.
compound	data_value
CCCCCCCC1(CCCCCCC)OCC(COC(=O)NCCCS(=O)(=O)[O-])O1.[Na+] (stereo not drawn) [RBK-0170]	0
CC(COC(=O)NCC(O)CS(=O)(=O)[O-])(OCCC(F)(F)C(F)(F)C(F)(F)C(F)(F)C(F)(F)C(F)(F)F)OCCC(F)(F)C(F)(F)C(F)(F)C(F)(F)C(F)(F)C(F)(F)F.[Na+] (stereo not drawn) [ZZ-0846]	2
CCCCCCCCCCCC1OCC(COC(=O)Nc2ccc(N(CCCS(=O)(=O)[O-])CCCS(=O)(=O)[O-])cc2)O1.[Na+].[Na+] (stereo not drawn) [CS-0843]	22
CC(COC(=O)NCC(O)CS(=O)(=O)[O-])(OCCC(F)(F)C(F)(F)C(F)(F)C(F)(F)F)OCCC(F)(F)C(F)(F)C(F)(F)C(F)(F)F.[Na+] (stereo not drawn) [ZZ-0850]	0
CCCCCCC1(CCCCCC)OCC(COC(=O)NCCCS(=O)(=O)[O-])O1.[Na+] (stereo not drawn) [TU-1179]	0

q: Param item = CC(COC(=O)NCCCS(=O)(=O)[O-])(OCCC(F)(F)C(F)(F)C(F)(F)C(F)(F)C(F)(F)C(F)(F)F)OCCC(F)(F)C(F)(F)C(F)(F)C(F)(F)C(F)(F)C(F)(F)F.[Na+] [ZZ-0849] ; retrieve measured % remaining after 1 h at 40° C. in 2% TFA.
a: 2
